Please go through the items and note down their tissue uptake at 24 h.
- Protocol Details: Biodistribution at 24 h p.i. in AR42J tumor-bearing CB17-SCID mice
- Type: in vivo
- Assay Context: mouse, stomach, 100 pmol, n=4, mean ± SD, read-out: Biodistribution, Stomach
Field note: include the unit after the figure.

Just so you know, measured tissue uptake at 24 h for CCCC[C@@H](C(=O)N[C@@H](CC(=O)O)C(=O)N[C@@H](Cc1cccc2ccccc12)C(N)=O)N(C)C(=O)[C@H](Cc1c[nH]c2ccccc12)NC(=O)CCOCCOCCOCCOCCNC(=O)CC[C@@H](NC(=O)CCOCCOCCOCCOCCOCCOCCOCCOCCNC(=O)CC[C@@H](NC(=O)[C@@H](CNC(=O)c1ccc([Si](F)(C(C)(C)C)C(C)(C)C)cc1)NC(=O)CN1CCN(CC(=O)O)CCN(CC(=O)O)CCN(CC(=O)O)CC1)C(=O)O)C(=O)O [[^nat/177Lu]Lu-DOTA-rhCCK-70, metal not drawn] came out at 6.2 %ID/g

Just so you know, measured tissue uptake at 24 h for CCCC[C@@H](C(=O)N[C@@H](CC(=O)O)C(=O)N[C@@H](Cc1cccc2ccccc12)C(N)=O)N(C)C(=O)[C@H](Cc1c[nH]c2ccccc12)NC(=O)CCOCCOCCOCCOCCNC(=O)CC[C@@H](NC(=O)CCOCCOCCOCCOCCOCCNC(=O)CC[C@@H](NC(=O)[C@@H](CNC(=O)C[N+](C)(C)Cc1ccc([Si](F)(C(C)(C)C)C(C)(C)C)cc1)NC(=O)CN1CCN(CC(=O)O)CCN(CC(=O)O)CCN(CC(=O)O)CC1)C(=O)O)C(=O)O [[^nat/177Lu]Lu-DOTA-rhCCK-91, metal not drawn] came out at 4 %ID/g
